Cited source for all entries: the supplement of paper PMC10849652

Recorded log2 fold change, one value per entry.
- study_system: ZNF277 (UniProt Q9NRM2)
- Sequence (Q9NRM2 whole entry, looked up): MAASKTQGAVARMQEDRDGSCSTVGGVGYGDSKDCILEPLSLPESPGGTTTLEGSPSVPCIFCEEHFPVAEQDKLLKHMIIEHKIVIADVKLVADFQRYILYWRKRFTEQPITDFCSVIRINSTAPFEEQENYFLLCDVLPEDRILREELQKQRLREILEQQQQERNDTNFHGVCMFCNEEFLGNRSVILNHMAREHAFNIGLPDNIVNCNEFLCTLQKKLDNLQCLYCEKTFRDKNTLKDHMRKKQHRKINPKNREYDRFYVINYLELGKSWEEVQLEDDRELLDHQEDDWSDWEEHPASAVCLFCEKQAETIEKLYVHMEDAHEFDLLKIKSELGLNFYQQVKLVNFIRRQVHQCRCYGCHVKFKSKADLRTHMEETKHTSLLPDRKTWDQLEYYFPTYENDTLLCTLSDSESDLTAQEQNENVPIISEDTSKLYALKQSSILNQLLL
- test_name: log2 fold change, soluble protein after heating vs DMSO (PISA); higher = thermal stabilisation; K562 cells, 10 uM, 30 min; active = over 0.2 and 3.5 SD of the protein, either way, in both replicates (recomputed)
About 7,900 targets were measured; listed, in parts, are those with a hit and a random draw of the rest. About 0.6% of all pairs of compound and target were hits.
measured_metric: log2 fold change

[[record]]
smiles_str = "NC(=O)c1ccc2nc(-c3ccc(Oc4ccc(Cl)cc4)cc3)[nH]c2c1"
study_system = "ZNF277 (UniProt Q9NRM2)"
measured_result = "-0.104 (inactive)"

[[record]]
smiles_str = "O=C(Nc1nc2ccccc2n1CCN1CCOCC1)c1cccc([N+](=O)[O-])c1"
study_system = "ZNF277 (UniProt Q9NRM2)"
measured_result = "-0.346 (inactive)"

[[record]]
smiles_str = "COc1cc2ncnc(Nc3ccc(F)c(Cl)c3)c2cc1OCCCN1CCOCC1"
study_system = "ZNF277 (UniProt Q9NRM2)"
measured_result = "-0.053 (inactive)"

[[record]]
smiles_str = "FC(F)(F)c1ccc(/C=C/c2nc(COc3ccc(CCCCn4ccnn4)cc3)co2)cc1"
study_system = "ZNF277 (UniProt Q9NRM2)"
measured_result = "0.192 (inactive)"

[[record]]
smiles_str = "CNC(=O)c1ccc(Nc2ncc(C(F)(F)F)c(NCc3nccnc3N(C)S(C)(=O)=O)n2)cc1"
study_system = "ZNF277 (UniProt Q9NRM2)"
measured_result = "0.161 (inactive)"

[[record]]
smiles_str = "Cc1nc(Nc2ncc(C(=O)Nc3c(C)cccc3Cl)s2)cc(N2CCN(CCO)CC2)n1"
study_system = "ZNF277 (UniProt Q9NRM2)"
measured_result = "0.019 (inactive)"

[[record]]
smiles_str = "CS(=O)(=O)CCNCc1ccc(-c2ccc3ncnc(Nc4ccc(OCc5cccc(F)c5)c(Cl)c4)c3c2)o1"
study_system = "ZNF277 (UniProt Q9NRM2)"
measured_result = "0 (inactive)"

[[record]]
smiles_str = "NC1(Cc2ccc(Cl)cc2)CCN(c2ncnc3[nH]ccc23)CC1"
study_system = "ZNF277 (UniProt Q9NRM2)"
measured_result = "-0.319 (inactive)"

[[record]]
smiles_str = "Cn1cc(-c2ccc3nnc(C(F)(F)c4ccc5ncccc5c4)n3n2)cn1"
study_system = "ZNF277 (UniProt Q9NRM2)"
measured_result = "-0.064 (inactive)"

[[record]]
smiles_str = "c1cn2cc(-c3ccc4cn[nH]c4c3)nc(Nc3ccc(N4CCOCC4)cc3)c2n1"
study_system = "ZNF277 (UniProt Q9NRM2)"
measured_result = "0.031 (inactive)"

[[record]]
smiles_str = "Cc1cn(-c2cc(NC(=O)c3ccc(C)c(Nc4nccc(-c5cccnc5)n4)c3)cc(C(F)(F)F)c2)cn1"
study_system = "ZNF277 (UniProt Q9NRM2)"
measured_result = "-0.207 (inactive)"

[[record]]
smiles_str = "CC(C)N(C[C@H]1O[C@@H](n2cnc3c(N)ncnc32)[C@H](O)[C@@H]1O)[C@H]1C[C@@H](CCc2nc3cc(C(C)(C)C)ccc3[nH]2)C1"
study_system = "ZNF277 (UniProt Q9NRM2)"
measured_result = "0.267 (inactive)"

